# assay_explanation: Solubility of the compound
# Type: physicochemical
assay_metric: solubility (µg/mL)
Field format: number, assumed µg/mL, no unit text.

**Q:** Find the recorded solubility belonging to Cn1c(CN2CCC(c3ccccc3F)CC2)nc2ccccc21 and report it.
**A:** 31

====

# test_system: Metabotropic glutamate receptor 5 (Homo sapiens, UniProt P41594)
# Sequence (P41594 whole entry): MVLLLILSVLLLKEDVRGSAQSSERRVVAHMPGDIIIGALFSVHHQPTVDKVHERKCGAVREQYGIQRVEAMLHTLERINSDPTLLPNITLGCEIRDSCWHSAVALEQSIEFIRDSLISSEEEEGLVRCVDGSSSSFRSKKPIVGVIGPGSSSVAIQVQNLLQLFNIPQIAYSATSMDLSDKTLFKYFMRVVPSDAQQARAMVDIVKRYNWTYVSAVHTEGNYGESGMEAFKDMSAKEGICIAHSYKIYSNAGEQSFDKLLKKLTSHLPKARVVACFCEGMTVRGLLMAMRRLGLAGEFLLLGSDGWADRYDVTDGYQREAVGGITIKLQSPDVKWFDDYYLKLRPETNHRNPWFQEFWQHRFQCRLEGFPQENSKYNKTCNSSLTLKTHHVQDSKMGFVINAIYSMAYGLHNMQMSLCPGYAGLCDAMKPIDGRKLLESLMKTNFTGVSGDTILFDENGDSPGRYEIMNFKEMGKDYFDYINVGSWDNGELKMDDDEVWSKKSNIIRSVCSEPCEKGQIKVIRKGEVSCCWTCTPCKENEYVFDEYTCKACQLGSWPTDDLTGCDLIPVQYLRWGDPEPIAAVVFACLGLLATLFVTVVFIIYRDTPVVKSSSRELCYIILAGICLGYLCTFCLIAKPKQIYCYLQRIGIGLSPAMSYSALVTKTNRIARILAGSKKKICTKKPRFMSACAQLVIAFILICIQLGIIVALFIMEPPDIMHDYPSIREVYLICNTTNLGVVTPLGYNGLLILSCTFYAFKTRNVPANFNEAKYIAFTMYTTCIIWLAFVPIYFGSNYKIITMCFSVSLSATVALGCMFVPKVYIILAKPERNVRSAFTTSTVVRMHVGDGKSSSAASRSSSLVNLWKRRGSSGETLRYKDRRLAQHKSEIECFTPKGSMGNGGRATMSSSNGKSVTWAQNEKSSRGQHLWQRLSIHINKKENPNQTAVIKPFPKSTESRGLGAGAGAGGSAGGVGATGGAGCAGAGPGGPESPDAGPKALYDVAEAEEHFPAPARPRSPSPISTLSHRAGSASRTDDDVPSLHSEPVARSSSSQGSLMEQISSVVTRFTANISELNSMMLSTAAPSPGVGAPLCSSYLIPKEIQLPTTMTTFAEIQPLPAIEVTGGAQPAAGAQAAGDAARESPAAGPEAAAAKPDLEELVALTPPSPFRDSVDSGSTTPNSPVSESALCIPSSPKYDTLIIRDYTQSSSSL
# assay_explanation: Agonist activity at mGluR5
# Type: functional
assay_metric: EC50

**Q:** EC50 lookup needed for Cn1c(CN2CCC(c3ccccc3F)CC2)nc2ccccc21 , thanks.
**A:** > 15.8 µM

====

# test_system: Metabotropic glutamate receptor 2 (Homo sapiens)
# Sequence (Q14416 whole entry): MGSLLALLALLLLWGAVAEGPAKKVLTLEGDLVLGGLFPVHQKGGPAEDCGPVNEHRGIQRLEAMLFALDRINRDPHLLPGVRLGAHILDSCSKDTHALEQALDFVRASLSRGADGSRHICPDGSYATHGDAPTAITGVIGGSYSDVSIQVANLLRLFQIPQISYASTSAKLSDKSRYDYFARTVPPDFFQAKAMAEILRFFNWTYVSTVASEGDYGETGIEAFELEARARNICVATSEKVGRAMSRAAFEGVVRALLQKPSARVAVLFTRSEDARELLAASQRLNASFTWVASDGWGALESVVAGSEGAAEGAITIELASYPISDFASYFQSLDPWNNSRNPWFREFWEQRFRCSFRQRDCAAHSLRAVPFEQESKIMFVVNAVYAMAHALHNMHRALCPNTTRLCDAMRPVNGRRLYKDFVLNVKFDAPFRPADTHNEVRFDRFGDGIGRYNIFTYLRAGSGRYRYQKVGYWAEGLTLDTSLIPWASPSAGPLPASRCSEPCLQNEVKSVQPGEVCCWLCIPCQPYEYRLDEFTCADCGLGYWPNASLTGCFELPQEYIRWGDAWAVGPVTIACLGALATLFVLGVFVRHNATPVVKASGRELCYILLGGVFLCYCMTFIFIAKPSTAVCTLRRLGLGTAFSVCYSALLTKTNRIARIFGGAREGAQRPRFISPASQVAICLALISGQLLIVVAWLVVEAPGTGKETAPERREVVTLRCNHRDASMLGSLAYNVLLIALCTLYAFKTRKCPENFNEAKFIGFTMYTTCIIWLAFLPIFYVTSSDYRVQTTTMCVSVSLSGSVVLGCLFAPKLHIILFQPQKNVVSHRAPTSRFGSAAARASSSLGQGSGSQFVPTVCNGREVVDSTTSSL
# assay_explanation: Positive modulation of human mGluR2 expressed in CHO cells co-expressing Ga16 G-protein assessed as glutamate-induced response by FLIPR assay
# Type: cell-based
assay_metric: EC50 (nM)
Report the value in nM with no unit label.

{"columns": ["smi", "test_system", "unit_descriptor", "EC50"],
 "data": [
  ["Cn1c(CN2CCN(c3ccccn3)CC2)nc2ccccc21", "Metabotropic glutamate receptor 2 (Homo sapiens)", "nM", 15800],
  ["CCn1c(CN2CCN(c3ncc(Cl)cn3)CC2)nc2ccccc21", "Metabotropic glutamate receptor 2 (Homo sapiens)", "nM", 158],
  ["CCCn1c(CN2CCN(c3ncc(C(F)(F)F)cc3Cl)CC2)nc2ccccc21", "Metabotropic glutamate receptor 2 (Homo sapiens)", "nM", 2510]
]}

**Q:** Using the record for Cn1c(CN2CCC(c3nc4ccccc4s3)CC2)nc2ccccc21 , report its EC50.
**A:** 158

**Q:** For Cn1c(CN2CCN(c3ncc(Cl)cn3)CC2)nc2ccccc21 then?
**A:** 126

**Q:** Also, Cn1c(CN2CCN(c3ncc(C(F)(F)F)cc3Cl)CC2)nc2ccc(F)cc21 please.
**A:** 126

**Q:** Input COCCn1c(CN2CCN(c3ncc(Cl)cn3)CC2)nc2ccccc21
**A:** 501

**Q:** For Cn1c(CN2CCN(c3ccc(Cl)cc3)CC2)nc2ccccc21 then?
**A:** 794

**Q:** Input Cn1c(CN2CCC(c3ccc(Cl)cc3)CC2)nc2ccccc21
**A:** 79.4

**Q:** Another molecule: Cn1c(CN2CCN(c3ccc(C(F)(F)F)cc3)CC2)nc2ccccc21
**A:** 200

**Q:** Repeat with Cn1c(CN2CCC(c3ccc(C(F)(F)F)cc3)CC2)nc2ccccc21
**A:** 100

**Q:** Please answer likewise for Cn1c(CN2CCC(c3cccc(Cl)c3)CC2)nc2ccccc21
**A:** 100

**Q:** Param item: FC(F)(F)c1cnc(N2CCN(Cc3nc4ccccc4[nH]3)CC2)c(Cl)c1
**A:** 12600

**Q:** Another molecule: Cn1c(CN2CCN(c3ccc(C(F)(F)F)cn3)CC2)nc2ccccc21
**A:** 501

**Q:** # iterate: Cn1c(CN2CCN(c3ncc(C(F)(F)F)cc3Cl)CC2)nc2ccccc21
**A:** 79.4

**Q:** Proceed to Clc1cnc(N2CCN(Cc3nc4ccccc4[nH]3)CC2)nc1
**A:** 12600

**Q:** Now try Cn1c(CN2CCN(c3ncc(C(F)(F)F)cc3Cl)CC2)nc2cc(C(F)(F)F)ccc21 .
**A:** 2000

**Q:** Now consider FC(F)(F)c1cnc(N2CCN(Cc3nc4ccccc4n3Cc3ccccc3)CC2)c(Cl)c1 and answer again.
**A:** 126

**Q:** Now consider Cn1c(CN2CCC(c3nsc4ccccc34)CC2)nc2ccccc21 and answer again.
**A:** 200

**Q:** What do you get for Cn1c(CN2CCN(c3ccccc3C(F)(F)F)CC2)nc2ccccc21 ?
**A:** 316

**Q:** Another molecule to look at: CCn1c(CN2CCN(c3ncc(C(F)(F)F)cc3Cl)CC2)nc2ccccc21
**A:** 63.1
